- test target: MAO-B (Homo sapiens, UniProt P27338)
- Construct: purchased Sigma-Aldrich
- Sequence (P27338 1-520): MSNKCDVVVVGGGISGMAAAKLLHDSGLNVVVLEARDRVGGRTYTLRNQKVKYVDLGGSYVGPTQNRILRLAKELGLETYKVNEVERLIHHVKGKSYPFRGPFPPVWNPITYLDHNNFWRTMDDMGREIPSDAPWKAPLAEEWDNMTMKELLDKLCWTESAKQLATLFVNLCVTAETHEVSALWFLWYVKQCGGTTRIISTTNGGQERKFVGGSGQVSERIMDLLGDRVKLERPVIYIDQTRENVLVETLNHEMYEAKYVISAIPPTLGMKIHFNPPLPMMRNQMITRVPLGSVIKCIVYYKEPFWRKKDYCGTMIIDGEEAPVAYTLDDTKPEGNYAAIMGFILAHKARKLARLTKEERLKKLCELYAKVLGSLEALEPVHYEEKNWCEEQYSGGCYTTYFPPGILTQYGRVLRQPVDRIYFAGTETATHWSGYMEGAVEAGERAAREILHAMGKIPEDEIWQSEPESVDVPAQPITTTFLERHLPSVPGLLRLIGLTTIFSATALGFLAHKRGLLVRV
- method description: biochemical
- condition label: mean ± standard error of duplicates; reference compounds after 30 min preincubation with enzyme; read-out: IC50 (µM) MAO-B
property label: IC50 (µM)
Only the number, expressed in µM, is required.

Exam item: Can you share its IC50? I mean this compound: COc1ccc(/C=C/C(=O)c2ccc(ON=C3CCCCC3)cc2)cc1
Marked response: 0.21

Exam item: Can you share its IC50? I mean this compound: COc1ccc(/C=C/C(=N/Oc2ccc(/C=C/C(=O)c3ccc(F)cc3)cc2)c2ccc(OC)cc2)cc1
Marked response: 0.028
